# Test System: His-tagged CRBN-DDB1 complex (Homo sapiens, UniProt Q96SW2)
# Sequence (Q96SW2 whole entry): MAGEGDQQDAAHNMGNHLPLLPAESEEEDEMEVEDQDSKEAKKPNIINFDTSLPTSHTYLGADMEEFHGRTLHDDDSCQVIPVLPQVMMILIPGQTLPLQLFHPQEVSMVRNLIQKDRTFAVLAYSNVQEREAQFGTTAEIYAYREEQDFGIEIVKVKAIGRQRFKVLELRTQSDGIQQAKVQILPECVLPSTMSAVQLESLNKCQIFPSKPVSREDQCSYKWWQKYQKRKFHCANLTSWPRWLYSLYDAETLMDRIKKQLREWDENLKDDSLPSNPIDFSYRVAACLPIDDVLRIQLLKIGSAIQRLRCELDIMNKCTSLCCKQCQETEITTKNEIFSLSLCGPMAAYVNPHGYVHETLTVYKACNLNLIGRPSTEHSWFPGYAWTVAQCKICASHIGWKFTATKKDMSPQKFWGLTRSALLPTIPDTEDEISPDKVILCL
# Sequence (Q16531 whole entry partner): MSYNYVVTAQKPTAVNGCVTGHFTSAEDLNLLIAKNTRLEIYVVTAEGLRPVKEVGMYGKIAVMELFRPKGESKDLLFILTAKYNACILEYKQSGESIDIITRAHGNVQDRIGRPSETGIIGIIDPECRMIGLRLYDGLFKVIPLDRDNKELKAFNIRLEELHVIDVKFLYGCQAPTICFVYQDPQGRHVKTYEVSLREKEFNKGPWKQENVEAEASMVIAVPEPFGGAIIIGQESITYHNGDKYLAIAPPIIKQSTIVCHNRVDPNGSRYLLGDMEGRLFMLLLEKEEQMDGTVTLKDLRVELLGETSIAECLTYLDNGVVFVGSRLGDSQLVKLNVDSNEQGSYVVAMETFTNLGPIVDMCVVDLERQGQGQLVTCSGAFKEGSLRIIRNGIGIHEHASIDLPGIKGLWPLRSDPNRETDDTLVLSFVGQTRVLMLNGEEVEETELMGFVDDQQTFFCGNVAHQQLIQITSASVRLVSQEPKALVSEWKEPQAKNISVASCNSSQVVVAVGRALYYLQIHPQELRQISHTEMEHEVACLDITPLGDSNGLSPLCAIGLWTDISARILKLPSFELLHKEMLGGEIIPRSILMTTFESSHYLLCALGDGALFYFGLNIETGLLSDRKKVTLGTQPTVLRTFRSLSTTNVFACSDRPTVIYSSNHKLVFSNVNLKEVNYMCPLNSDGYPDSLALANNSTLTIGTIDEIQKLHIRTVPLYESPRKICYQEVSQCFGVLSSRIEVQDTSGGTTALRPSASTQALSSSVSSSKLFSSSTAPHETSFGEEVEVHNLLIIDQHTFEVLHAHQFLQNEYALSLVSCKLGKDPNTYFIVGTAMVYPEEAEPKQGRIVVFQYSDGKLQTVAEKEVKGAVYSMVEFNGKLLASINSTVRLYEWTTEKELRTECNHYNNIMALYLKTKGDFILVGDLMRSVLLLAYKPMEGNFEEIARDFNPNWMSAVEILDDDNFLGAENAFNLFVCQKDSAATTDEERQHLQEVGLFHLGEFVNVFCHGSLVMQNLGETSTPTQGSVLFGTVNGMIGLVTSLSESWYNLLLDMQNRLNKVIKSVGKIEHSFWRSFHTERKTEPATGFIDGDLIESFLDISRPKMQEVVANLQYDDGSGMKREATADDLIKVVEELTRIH
# Run Description: Time-Resolved Fluorescence Resonance Energy Transfer (TR-FRET / HTRF) CRBN binding assay, displacement of Cy5-labeled thalidomide
# Particulars: His-CRBN-DDB1, Cy5-thalidomide 8 nM, 1 hour room temperature
# Experimental: Time-Resolved Fluorescence Resonance Energy Transfer (TR-FRET) Assay. Equal volumes of His-tagged CRBN-DDB1 complex (56 nM) was mixed with Eu-cryptate labeled Anti-6HIS-monoclonal antibody (50× dilution from the commercial stock solution, Vender: Cisbio, Cat. #61HI2KLA) in a final buffer containing 20 mM HEPES pH 7.0, 150 mM NaCl, 0.005% Tween-20. […] The mixture were incubated at room temperature for 1 hour. […] FRET efficiency was calculated as the ratio of fluorescent signals at 665 nM/615 nM. […]
pIC50: −log10 of the molar value.
Recorded pIC50 values for a group of molecules are listed next.

Solved entries (count: 3):
1. O=C1CC2(CCN(C(=O)c3ccc4ccoc4c3)CC2)CC(=O)N1 = < 4.00
2. O=C1Cc2cccc(Oc3ccccc3F)c2C(=O)N1 = > 5.00
3. O=C1CC2(CCN(C(=O)c3c[nH]cn3)CC2)CC(=O)N1 = < 4.00

Bench note, His-tagged CRBN-DDB1 complex (Homo sapiens, UniProt Q96SW2): entry `O=C1Cc2cccc(O)c2C(=O)N1` , its pIC50 = 4.52 to 5.00

# pIC50 measured on His-tagged CRBN-DDB1 complex (Homo sapiens, UniProt Q96SW2) for item `O=c1[nH]c(=O)c2c(Br)cccc2o1` = < 4.00

Kindly note: His-tagged CRBN-DDB1 complex (Homo sapiens, UniProt Q96SW2), `COc1ccccc1C(=O)N1C[C@@H]2C(=O)NC(=O)[C@@H]2C1` , pIC50 value reported: < 4.00

The reported pIC50 value, His-tagged CRBN-DDB1 complex (Homo sapiens, UniProt Q96SW2), for `COCc1cccc(N2C[C@@H]3C(=O)NC(=O)[C@@H]3C2)c1` reads < 4.00

Reported pIC50 (His-tagged CRBN-DDB1 complex (Homo sapiens, UniProt Q96SW2)) for entry `CC(C)(C)OC(=O)NCCCCCCCc1ccc(Oc2cccc3c2C(=O)NC(=O)C3)cc1` is < 4.00

pIC50 for His-tagged CRBN-DDB1 complex (Homo sapiens, UniProt Q96SW2) with input `Nc1ccc2c(c1)CC(=O)NC2=O` equals 4.52 to 5.00

Here O=c1[nH]c(=O)c2cc(Br)ccc2[nH]1 [Compound I-55, 6-Bromo-1,3-dihydroquinazoline-2,4-dione] was tested on His-tagged CRBN-DDB1 complex (Homo sapiens, UniProt Q96SW2), and its pIC50 came to < 4.00

`CC(C)(C)OC(=O)NCCCCCCCC#Cc1ccccc1Oc1cccc2c1C(=O)NC(=O)C2=O` tested on His-tagged CRBN-DDB1 complex (Homo sapiens, UniProt Q96SW2) gave pIC50: > 5.00
